Kindly state EC50 for each of the entries shown.
Study Target: human activated kallikrein enzyme (plasma kallikrein) (Homo sapiens (Human))
Protocol Text: Inhibition of human activated plasma kallikrein, fluorogenic peptide substrate assay, 500 pM enzyme format
Format: biochemical
Assay Conditions: 500 pM activated kallikrein enzyme, 300 uM Pro-Phe-Arg-7-amido-4-methylcoumarin substrate, 30 min preincubation, 10 min at RT; read-out: Primary Dose Response Assay: Average EC50

// solved cases for EC50 follow
C/C=C\c1ccc2nc(Cn3cc(C(=O)NCc4ncn5ccc(Cl)cc45)cn3)cn2c1 [Example I-47] ... 1 to 10 nM
O=C(NCc1ncn2ccc(Cl)cc12)c1cnn(Cc2nc3ccc(C4CC4)cn3n2)c1 [Example I-6] ... 1 to 10 nM
O=C(NCc1ncn2ccc(Cl)c(F)c12)c1cn(Cc2cc3cc(C4CC4)cnc3s2)nn1 [Example I-189] ... < 1 nM

Proceed to the following item.
Field EC50 (system: human activated kallikrein enzyme (plasma kallikrein) (Homo sapiens (Human))) for entry N#Cc1cc(C2CC2)cn2cc(Cc3nnc(C(=O)NCc4ncn5ccc(Cl)c(F)c45)o3)nc12 [Example I-158] = < 1 nM

----------
Study Target: human activated kallikrein enzyme (plasma kallikrein) (Homo sapiens (Human), UniProt P03952)
Sequence (P03952 391-638): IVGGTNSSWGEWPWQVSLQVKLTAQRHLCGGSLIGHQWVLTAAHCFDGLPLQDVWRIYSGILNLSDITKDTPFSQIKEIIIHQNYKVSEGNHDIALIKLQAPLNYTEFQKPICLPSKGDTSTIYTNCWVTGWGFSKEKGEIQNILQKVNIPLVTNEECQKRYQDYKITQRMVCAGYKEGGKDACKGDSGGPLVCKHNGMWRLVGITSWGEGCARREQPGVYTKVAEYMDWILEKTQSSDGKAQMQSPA
Sequence (P03952 20-390 partner): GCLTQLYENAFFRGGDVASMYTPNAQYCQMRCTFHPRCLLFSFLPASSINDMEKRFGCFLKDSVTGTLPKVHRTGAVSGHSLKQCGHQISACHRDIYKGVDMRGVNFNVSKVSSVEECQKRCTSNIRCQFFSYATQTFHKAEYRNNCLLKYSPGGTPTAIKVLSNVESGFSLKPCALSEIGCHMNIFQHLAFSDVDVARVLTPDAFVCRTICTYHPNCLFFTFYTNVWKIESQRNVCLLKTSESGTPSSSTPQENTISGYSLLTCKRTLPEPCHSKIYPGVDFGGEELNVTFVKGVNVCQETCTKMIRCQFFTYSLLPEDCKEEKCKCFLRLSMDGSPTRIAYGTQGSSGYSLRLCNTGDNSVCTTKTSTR
Protocol Text: Inhibition of human activated plasma kallikrein, fluorogenic peptide substrate assay, 500 pM enzyme format
Type: biochemical
Assay Conditions: 500 pM activated kallikrein enzyme, 300 uM Pro-Phe-Arg-7-amido-4-methylcoumarin substrate, 30 min preincubation, 10 min at RT; read-out: Primary Dose Response Assay: Average EC50
pEC50: −log10 of the molar value.
Endpoint Label: pEC50

Example compounds with recorded pEC50:
O=C(NCc1ncn2ccc(Cl)cc12)c1cc(Cc2cn3cc(C4CC4)ccc3n2)on1 ... 8.00 to 9.00
O=C(NCc1ncn2ccc(Cl)cc12)c1cnn(Cc2cn3cc(C4CC4)cc(C4CC4C(=O)O)c3n2)c1 (stereo not shown) ... > 9.00

List pEC50 for every entry below, keeping the order given.
1. O=C(NCc1ncn2ccc(Cl)cc12)c1cnn(Cc2cn3cc(C4CC4)cc(Cc4nnco4)c3n2)c1
2. O=C(NCc1ncn2ccc(Br)c(F)c12)c1nnc(Cc2cn3cc(C4CC4)ccc3n2)o1
3. O=C(NCc1ncn2ccc(Cl)c(F)c12)c1cn(Cc2cc3ncc(C4CC4)cn3n2)nn1
4. O=C(NCc1ncn2ccc(Br)cc12)c1cn(Cc2cn3cc(C4CC4)ccc3n2)nc1C1CC1
5. O=C(O)CCc1nn(Cc2cn3cc(C4CC4)ccc3n2)cc1C(=O)NCc1ncn2ccc(Cl)cc12

Out:
> 9.00
> 9.00
8.00 to 9.00
> 9.00
> 9.00

----------
Study Target: human activated kallikrein enzyme (plasma kallikrein) (Homo sapiens (Human))
Protocol Text: Inhibition of human activated plasma kallikrein, fluorogenic peptide substrate assay, 500 pM enzyme format
Type: biochemical
Assay Conditions: 500 pM activated kallikrein enzyme, 300 uM Pro-Phe-Arg-7-amido-4-methylcoumarin substrate, 30 min preincubation, 10 min at RT; read-out: Primary Dose Response Assay: Average EC50
Kindly supply the reported EC50 values for the records listed here.

Solved entries (count: 2):
O=C(NCc1ncn2cc(F)c(Cl)cc12)c1cn(Cc2cn3cc(C4CC4)ccc3n2)nn1 ... 10 to 100 nM
N#Cc1cccc2nc(Cn3cc(C(=O)NCc4ncn5ccc(Cl)cc45)cn3)cn12 ... 10 to 100 nM

Record EC50 for all entries; do not skip any.
1. CCOC(=O)C(C)(C)Cc1cc(C2CC2)cn2cc(Cn3cc(C(=O)NCc4ncn5ccc(Cl)c(F)c45)nn3)nc12
2. O=C(NCc1ncn2ccc(Cl)cc12)c1cnn(Cc2cn3cc(C4CC4)cc(C4COC4)c3n2)c1
3. O=C(NCc1ncn2ccc(Cl)c(F)c12)c1cn(Cc2cn3cc(C4CC4)cc(C(=O)O)c3n2)nn1 [Example I-166b]
4. CC(C)c1ccc2nc(Cn3cc(C(=O)NCc4ncn5ccc(Cl)cc45)cn3)cn2c1
5. COC(=O)c1ccc(-n2c(Cn3cc(C(=O)NCc4ncn5ccc(Cl)c(F)c45)nn3)cc3cc(C4CC4)ccc32)cc1

Out:
< 1 nM
< 1 nM
< 1 nM
< 1 nM
1 to 10 nM

Each compound below has a recorded value; state its EC50.
1. N#Cc1cc(Cn2cc(C(=O)NCc3ncn4ccc(Cl)c(F)c34)nn2)cc2cc(C3CC3)cnc12
2. Cc1ccc2nc(Cn3cc(C(=O)NCc4ncn5ccc(Cl)c(C)c45)cn3)cn2c1
3. O=C(NCc1ncn2ccc(Cl)c(F)c12)c1cnn(Cc2cn3cc(C4CC4)cc(Cc4nnco4)c3n2)c1
4. O=C(NCc1ncn2ccc(Cl)cc12)c1cnn(Cc2cn3cc(C4CCC4)ccc3n2)c1
5. CC1CC1c1ccc2nc(Cn3cc(C(=O)NCc4ncn5ccc(Br)cc45)cn3)cn2c1 (stereo not drawn)

Out:
1 to 10 nM
100 to 2000 nM
< 1 nM
1 to 10 nM
< 1 nM

Need EC50 for each of these compounds.
1. O=C(NCc1ncn2ccc(Cl)c(F)c12)c1cn(Cc2cn3cc(C4CC4)cc(CNCC(O)C(F)(F)F)c3n2)nn1 (stereo not drawn)
2. Cc1cc2nc(Cn3cc(C(=O)NCc4ncn5ccc(Br)cc45)cn3)cn2cc1C1CC1
3. O=C(NCc1ncn2ccc(Cl)c(F)c12)c1cn(Cc2cn3ccccc3n2)cn1
4. O=C(NCc1ncn2ccc(Cl)cc12)c1cnn(Cc2cn3c(Cl)c(Br)ccc3n2)c1
5. CCOC(=O)c1nnc(Cc2cc(C3CC3)cn3cc(Cn4cc(C(=O)NCc5ncn6ccc(Cl)c(F)c56)nn4)nc23)o1 [Example I-210a]
6. CCOC(=O)C(C)Cc1cc(C2CC2)cn2cc(Cn3cc(C(=O)NCc4ncn5ccc(Cl)c(F)c45)nn3)nc12 (stereo not drawn) [Example I-245a]

Out:
1. < 1 nM
2. 1 to 10 nM
3. 10 to 100 nM
4. 1 to 10 nM
5. < 1 nM
6. < 1 nM

Items follow; give EC50 for each.
1. O=C(NCc1ncn2ccc(Cl)c(F)c12)c1cn(Cc2cn3cc(C4CC4)cc(C(F)(F)F)c3n2)nn1
2. O=C(NCc1ncn2ccc(Cl)c(F)c12)c1cn(Cc2cc3cc(C4CC4)ccn3n2)nn1
3. O=C(NCc1ncn2ccc(Cl)c(F)c12)c1cn(Cc2[nH]c3cc(C4CC4)ccc3c2C(=O)O)nn1

Out:
["< 1 nM", "< 1 nM", "100 to 2000 nM"]

----------
Kindly state pEC50 for each of the entries shown.
Study Target: human activated kallikrein enzyme (plasma kallikrein) (Homo sapiens (Human), UniProt P03952)
Protocol Text: Inhibition of human activated plasma kallikrein, fluorogenic peptide substrate assay, 500 pM enzyme format
Format: biochemical
Assay Conditions: 500 pM activated kallikrein enzyme, 300 uM Pro-Phe-Arg-7-amido-4-methylcoumarin substrate, 30 min preincubation, 10 min at RT; read-out: Primary Dose Response Assay: Average EC50
pEC50: −log10 of the molar value.

Worked examples follow.
O=C(NCc1ncn2ccc(Cl)c(F)c12)c1cn(Cc2cn3cc(Cl)cc(C4COC4)c3n2)nn1 [Example I-187] ... > 9.00
CCOC(=O)c1cc(C2CC2)cn2cc(Cn3cc(C(=O)NCc4ncn5ccc(Cl)c(F)c45)nn3)nc12 [Example I-166a] ... > 9.00
O=C(NCc1ncn2ccc(Cl)c(F)c12)c1cn(Cc2nc3ccc(C4CC4)cc3s2)nn1 [Example I-252] ... 7.00 to 8.00
N#Cc1cc(C2CC2)cn2cc(Cn3cc(C(=O)NCc4ncn5ccc(Cl)cc45)nn3)nc12 [Example I-112] ... > 9.00
O=C(NCc1ncn2ccc(Cl)c(F)c12)c1cn(Cc2cn3cc(C4CC4)cc(CO)c3n2)nn1 [Example I-181] ... > 9.00
O=C(NCc1ncn2ccc(Cl)cc12)c1cn(Cc2cn3cc(C4CC4)ccc3n2)nc1C(F)F [Example I-99] ... > 9.00
Cc1cc2nc(Cn3cc(C(=O)NCc4ncn5ccc(Cl)cc45)cn3)cn2cc1C1CC1 [Example I-16] ... 8.00 to 9.00
C#Cc1cc(C2CC2)cn2cc(Cn3cc(C(=O)NCc4ncn5ccc(Cl)c(F)c45)nn3)nc12 [Example I-228] ... > 9.00
O=C(NCc1ncn2ccc(Cl)c(F)c12)c1cn(Cc2cn3nc(C4CC4)ccc3n2)nn1 [Example I-150] ... > 9.00
CCOC(=O)c1nncn1-c1cc(C2CC2)cn2cc(Cn3cc(C(=O)NCc4ncn5ccc(Cl)c(F)c45)nn3)nc12 [Example I-248] ... > 9.00

List the reported pEC50 of each compound below.
1. CCOC(=O)CC(c1cn2cc(C3CC3)ccc2n1)n1cc(C(=O)NCc2ncn3ccc(Cl)c(F)c23)nn1 (stereo not shown) [Example I-227a]
2. O=C(NCc1ncn2ccc(Cl)cc12)c1cnn(Cc2cn3cc(C4CC4)cc(CO)c3n2)c1 [Example I-75]
3. Nc1ccc(C2CC2)c2nc(Cn3cc(C(=O)NCc4ncn5ccc(Cl)cc45)cn3)cn12 [Example I-89]

Out:
1. 7.00 to 8.00
2. > 9.00
3. 5.70 to 7.00
